# assayedTarget: P-glycoprotein (P-gp, rat Mdr1a) (Rattus norvegicus, UniProt Q6PSM0)
# Sequence (Q6PSM0 1-1272): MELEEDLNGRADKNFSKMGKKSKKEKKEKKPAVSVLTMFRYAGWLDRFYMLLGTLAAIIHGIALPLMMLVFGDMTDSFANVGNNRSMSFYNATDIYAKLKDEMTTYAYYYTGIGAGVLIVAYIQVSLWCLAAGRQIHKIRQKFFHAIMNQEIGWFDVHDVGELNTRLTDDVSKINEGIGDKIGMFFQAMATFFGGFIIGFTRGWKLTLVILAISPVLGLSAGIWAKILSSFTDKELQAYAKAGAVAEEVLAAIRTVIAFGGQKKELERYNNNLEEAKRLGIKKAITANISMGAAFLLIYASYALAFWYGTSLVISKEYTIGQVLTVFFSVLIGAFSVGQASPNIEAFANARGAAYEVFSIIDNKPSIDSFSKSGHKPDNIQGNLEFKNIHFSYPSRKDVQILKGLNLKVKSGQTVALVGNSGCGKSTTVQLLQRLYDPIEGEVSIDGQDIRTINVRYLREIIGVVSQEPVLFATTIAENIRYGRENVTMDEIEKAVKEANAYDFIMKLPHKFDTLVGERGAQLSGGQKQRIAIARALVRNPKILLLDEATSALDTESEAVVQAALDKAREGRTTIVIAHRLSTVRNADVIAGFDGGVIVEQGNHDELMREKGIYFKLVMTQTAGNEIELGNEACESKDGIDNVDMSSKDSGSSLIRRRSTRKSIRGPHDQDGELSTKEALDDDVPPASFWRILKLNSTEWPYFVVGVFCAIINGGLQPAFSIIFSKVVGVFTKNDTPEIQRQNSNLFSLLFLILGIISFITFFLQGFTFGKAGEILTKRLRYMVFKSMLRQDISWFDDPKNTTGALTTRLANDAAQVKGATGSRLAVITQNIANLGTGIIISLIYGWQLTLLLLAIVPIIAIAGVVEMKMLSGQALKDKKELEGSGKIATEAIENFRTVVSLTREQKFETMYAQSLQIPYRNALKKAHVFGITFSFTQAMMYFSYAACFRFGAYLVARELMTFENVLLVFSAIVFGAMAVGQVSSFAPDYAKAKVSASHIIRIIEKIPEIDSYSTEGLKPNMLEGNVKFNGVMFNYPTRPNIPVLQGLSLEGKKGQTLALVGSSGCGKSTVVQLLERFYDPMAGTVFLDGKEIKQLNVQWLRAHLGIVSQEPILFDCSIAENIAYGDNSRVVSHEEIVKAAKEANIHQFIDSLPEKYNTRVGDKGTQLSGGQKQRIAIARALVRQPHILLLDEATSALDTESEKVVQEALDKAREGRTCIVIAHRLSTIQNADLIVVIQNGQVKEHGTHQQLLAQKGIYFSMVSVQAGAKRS
# protocolText: P-gp transport, experimental BA/AB ratio, rat LLC-Mdr1a
# Assay type: in vitro ADME
# cond: LLC-PK1; rat LLC-Mdrla; 1 μM substrate concentration
Exercise: state measured efflux ratio at 1 μM for each of the compounds provided.

INSERT INTO assay_data (compound, measuredattribute, result) VALUES
  ('CN(C)c1nc(C(=O)N[C@@H](c2ccc(C3CC3)cc2)C(C)(C)C)cc(=O)[nH]1 [Example 35]', 'efflux ratio at 1 μM', 3.6),
  ('CN(C)c1nc(C(=O)N[C@@H](c2ccc(CC(F)(F)F)cc2)C(C)(C)C)cc(=O)[nH]1 [Example 31]', 'efflux ratio at 1 μM', 9.7),
  ('C[C@@H](NC(=O)c1cc(=O)[nH]c(N2CCC2)n1)c1ccc(C(F)(F)F)cc1 [Example 10]', 'efflux ratio at 1 μM', 3.1),
  ('CN(C)c1nc(C(=O)N[C@@H](c2ccc(C3CC3)c(F)c2)C(C)(C)C)cc(=O)[nH]1 [Example 58]', 'efflux ratio at 1 μM', 4.7),
  ('C[C@@H](NC(=O)c1cc(=O)[nH]c(N2CCC(F)(F)C2)n1)c1ccc(C(F)(F)F)cc1 [Example 13]', 'efflux ratio at 1 μM', 5.9),
  ('CC(C)[C@@H](NC(=O)c1cc(=O)[nH]c(N(C)C)n1)c1ccc(C(C)(F)F)c(F)c1 [Example 77]', 'efflux ratio at 1 μM', 7.3),
  ('C[C@@H](NC(=O)c1cc(=O)[nH]c(N(C)C)n1)c1ccc(SC(F)(F)F)c(F)c1 [Example 96]', 'efflux ratio at 1 μM', 2.5);

Moving on to the next compound.
// query Please give the measured efflux ratio at 1 μM for this compound: O=C(N[C@@H](c1ccc(S(F)(F)(F)(F)F)cc1)C1CC1)c1cc(=O)[nH]c(N2CCCC2)n1 [Example 99]
// result 5.8

Each recorded value in this set is attributed to patent US10285989B2.
